# System: Saccharomyces cerevisiae
# procedure.summary: Antimicrobial activity against Saccharomyces cerevisiae ATCC 18824 at 200 ug/mL
# Assay type: functional, organism-based
Active and inactive are the calls of the source. The rule behind the calls is not given here.
Would you mind answering with one of these outcomes? active, inactive

{"columns": ["structure.smiles", "category"],
 "data": [
  ["C=C1[C@H](O)CC[C@H]2[C@](C)(CC/C(C)=C/Cn3c[n+](C)c4ncnc(N)c43)[C@@H](C)CC[C@@]12C", "active"]
]}

Request: Status in this test for "CC1=CCC[C@@H]2[C@@](C)(CC/C(C)=C/Cn3c[n+](C)c4ncnc(N)c43)[C@H](C)CC[C@@]12C" ?
Result: inactive
